# Tested on: HepG2-TUBA1B-RELA
# experiment: phenotypically active (imaging signature differs from DMSO and reproducible) at any of 0.3-9 uM (binary (1 = active, 0 = inactive)); higher = active
# run parameters: treatment time: 24 h
Where a name gives a salt, the structure may show the parent alone.
Hello, when you answer, please use one of the following outcomes: Y (active), N (inactive)

In: Tell me the recorded outcome of this test for O=C(O)[C@@H]1[C@H]2C[C@H]3c4[nH]c5ccccc5c4CCN3C[C@@H]2CC[C@@H]1O [Yohimbinic acid monohydrate] .
Out: N

In: Tell me the recorded outcome of this test for CC(C)(N)c1cc(C(=O)N[C@@H]2CCc3ccc(OC4=C5CCC(=O)N=C5NC=C4)cc3C2)cc(C(F)(F)F)c1 [ML 786 dihydrochloride] .
Out: Y

In: Tell me the recorded outcome of this test for CC(C)NCC(O)c1ccc(NS(C)(=O)=O)cc1 (stereo unspecified) .
Out: N

In: Tell me the recorded outcome of this test for O=C(O)[C@H]1CCCC[C@H]1C(=O)N1CCc2ccccc2[C@H]1CN1C(=O)c2ccccc2C1=O .
Out: Y

In: Tell me the recorded outcome of this test for CC1=CC(=O)CC(C)(C)C1(O)/C=C/C(C)=C\C(=O)O (mixture of isomers) [(+/-)-2-cis-4-trans-Abscisic acid] .
Out: N

In: Tell me the recorded outcome of this test for O=C(O)Cc1cccc(OCCCN(Cc2cccc(C(F)(F)F)c2Cl)CC(c2ccccc2)c2ccccc2)c1 [GW 3965 hydrochloride] .
Out: Y

In: Tell me the recorded outcome of this test for CN1CCN(c2ccc(OC(F)(F)F)c(Nc3ncc4c(n3)-c3c(c(C(N)=O)nn3CCO)CC4)c2)CC1 .
Out: Y

In: Tell me the recorded outcome of this test for CCOc1nc(NC(=O)Cc2cc(OC)ccc2OC)cc(N)c1C#N .
Out: N

In: Tell me the recorded outcome of this test for CCC(=O)N1CCN(c2ccc(-n3c(=O)ccc4cnc5ccc(-c6cnc7ccccc7c6)cc5c43)cc2C(F)(F)F)CC1 .
Out: Y

In: Tell me the recorded outcome of this test for COc1ccc2c(c1OC)C(=O)O[C@@H]2[C@H]1c2c(cc3c(c2OC)OCO3)CCN1C [Noscapine hydrochloride] .
Out: N

In: Tell me the recorded outcome of this test for COc1cc(N2CCC(O)CC2)ccc1Nc1cc(Nc2ccccc2S(=O)(=O)C(C)C)c2cc[nH]c2n1 [Mps1-IN-1 dihydrochloride] .
Out: Y

In: Tell me the recorded outcome of this test for CCCc1nc2c(C)cc(-c3nc4ccccc4n3C)cc2n1Cc1ccc(-c2ccccc2C(=O)O)cc1 .
Out: N

In: Tell me the recorded outcome of this test for CN1CCN(C2=Nc3cc(Cl)ccc3Nc3ccccc32)CC1 .
Out: N

In: Tell me the recorded outcome of this test for O=C(CCCc1ccc(-c2ccccc2F)cc1)Nc1ccc(O)cc1 .
Out: Y

In: Tell me the recorded outcome of this test for COCCc1ccc(OCC(O)CNC(C)C)cc1 (stereo unspecified) .
Out: N

In: Tell me the recorded outcome of this test for COc1cc2c(NC3CCN(C(C)C)CC3)nc(N3CCC(F)(F)CC3)nc2cc1OCCCN1CCCC1 .
Out: Y

###

# Test system: WPMY1-TP53BP1-CLTA
# experiment: lowest phenotypically active concentration; higher = less potent
# run parameters: treatment time: 24 h
measure: lowest phenotypically active concentration (µM)
All answers are understood in µM, so give the number only.

In: Using known records, supply lowest phenotypically active concentration for N#C/C(=C/c1ccc(O)c(O)c1)C(=O)NCCCCc1ccccc1
Out: 9

In: Using known records, supply lowest phenotypically active concentration for COc1cc2ncnc(Nc3cccc(Br)c3)c2cc1OC
Out: 3

In: Using known records, supply lowest phenotypically active concentration for CN(C)CC(=O)N1CCC[C@@H](n2nc(-c3ccc(Oc4ccccc4)cc3)c3c(N)ncnc32)C1
Out: 3

In: Using known records, supply lowest phenotypically active concentration for Nc1nccc(-c2ccc3noc(-c4ccc(Cl)cc4)c3c2)n1
Out: 9

In: Using known records, supply lowest phenotypically active concentration for Nc1nc(S)c2[nH]cnc2n1
Out: 9

In: Using known records, supply lowest phenotypically active concentration for Cc1cc(Nc2ncc3c(n2)N(C)C(=O)N(c2cc(NC(=O)c4cccc(C(F)(F)F)c4)ccc2C)C3)n(C)n1
Out: 1

In: Using known records, supply lowest phenotypically active concentration for CC(C)N(CCCNC(=O)Nc1ccc(C(C)(C)C)cc1)C[C@H]1O[C@@H](n2cc(Br)c3c(N)ncnc32)[C@H](O)[C@@H]1O
Out: 9

In: Using known records, supply lowest phenotypically active concentration for CN1CCN(c2ccc(-c3cccc(CN4CCOCC4)c3)cc2NC(=O)c2c[nH]c(=O)cc2C(F)(F)F)CC1
Out: 9
